Attribution: PubChem BioAssay AID588692

# assay-overview: D54 reporter luminescence gain compounds – D54 ERlucT cells, set 2, N-linked glycosylation inhibitor project, primary screen (AID 588692);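 note: luciferase carries N-glycosylation sites so blocking glycosylation raises the light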
# condition-set: D54 ERlucT glycosylation luciferase reporter, 24 h; at 12.5 µM; percent of 100 nM tunicamycin response
The campaign covered roughly 360,000 compounds. About 830 (0.23%) were called active.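 Rule for the calls: active = mean luciferase reporter signal, scaled so untreated is 0 and the glycosylation-blocking control 100, at or above a set limit in every replicate; inconclusive = mean reaches the limit but not every replicate does; inactive = mean below the limit.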 The full list was thinned out, with actives kept by preference.
Possible outcomes: active, inactive

O=C(CNCc1ccco1)Nc1cc(S(=O)(=O)N2CCOCC2)ccc1N1CCCC1
inactive
OC[C@@H]1CN(Cc2ccc3c(c2)OCO3)C[C@H](n2cnc3c(NCc4ccco4)ncnc32)O1
inactive
O=C(N/N=C/c1cccc(Br)c1)c1ccc(N2CCCC2=O)cc1
active
O=C(N/N=C\c1cccc(Br)c1)c1ccccc1-n1cccc1
inactive
COCCn1cnc2c1c(=O)n(CC(=O)NN)c(=O)n2Cc1ccccc1
inactive
CN(C)S(=O)(=O)c1ccc(N2CCCC2)c(C(=O)NCc2ccccc2)c1
inactive
CNC(=O)C(NC(=O)c1ccccc1)=C(C)C
inactive
CCN(CC)CCOc1ccc2c(c1)C(=NNC(=O)c1ccccn1)c1cc(OCCN(CC)CC)ccc1-2
active
Cc1cccc(C(=O)Nc2ccc(C(=O)/C=C/c3cccs3)cc2)c1
inactive
Cc1ccc(C(=O)NCC(c2cccs2)N(C)C)cc1S(=O)(=O)N1CCOCC1 (configuration not stated)
inactive
O=C(COc1ccc(Cl)cc1)Nc1ccc2oc(=O)ccc2c1
inactive
O=C(NCc1ccc2c(c1)OCO2)c1cc([N+](=O)[O-])ccc1N1CCOCC1
active
COc1ccccc1C(=O)COC(=O)CSCC(=O)Nc1cc(C)on1
inactive
C=CCC[C@@H](Cc1ccc(F)cc1)C(=O)OC[C@H](Cc1c[nH]c2ccccc12)NC(=O)[C@@H](CC=C)CC(=O)N(CCO)Cc1ccccc1
inactive
CN(C)C(=O)N=NC(=O)N(C)C
inactive
O=C(OC(C(=O)NC1CCCC1)c1ccc(F)cc1)c1ccno1 (configuration not stated)
inactive
CNC(=O)c1cccc2nc3ccccc3nc12
active
CCCNC(=O)C1(C)CCCN(C(=O)c2oc3ccccc3c2C)C1 (configuration not stated)
inactive
CCCNC(=O)C1(C)CCCN(C(=O)c2cccc(OC(C)=O)c2C)C1 (configuration not stated)
inactive
CCN(CC)CCNCC(=O)Nc1ccc(Oc2ccccc2)cc1
inactive
O=C(CCNS(=O)(=O)c1ccccc1)NCCSc1ccc(Br)cc1
inactive
Cn1c(=O)n(C)c2cc(S(=O)(=O)Nc3ccc(F)cc3)ccc21
inactive
O=C(COC(=O)Cn1cnc2ccccc2c1=O)NCc1ccccc1Cl
inactive
CCc1nnc(NC(=O)C2CC(=O)N(c3ccc4c(c3)OCCO4)C2)s1 (configuration not stated)
inactive
Cc1cc(O)ccc1-c1cc(C(=O)NCc2cc(C(F)(F)F)cc(C(F)(F)F)c2)[nH]n1
inactive
CN(C)C(=O)c1coc2nc3ccccc3nc12
inactive
CN(C)S(=O)(=O)c1ccc(N2CCCC2)c(C(=O)Nc2ccc(Br)cc2F)c1
inactive
Cc1ccc(OCC(=O)Nc2ccc(NC(=O)c3cccs3)cc2)c(C)c1
active
CC(=O)c1ccc(S(=O)(=O)NCCC(=O)N2CCN(c3ccccn3)CC2)cc1
inactive
O=C(Nc1ccc(N2CCCC2=O)cc1)c1cncc(Br)c1
inactive
CC(CNS(=O)(=O)c1ccc(Br)cc1)CN(C)C (configuration not stated)
inactive
CCOc1ccc2c(=O)c(-c3ccc4c(c3)OCCCO4)c(C)oc2c1
inactive
COC(=O)c1cccc(N(C(=O)c2ccco2)C(C(=O)NC2CCCC2)c2ccco2)c1 (configuration not stated)
inactive
COc1ccccc1CNC(=O)c1cc(-c2cc(F)ccc2OC)n[nH]1
inactive
C/C(=N\OCC(=O)Nc1ccc(Br)cc1)c1cccs1
inactive
O=C(O[C@H]1[C@H](Cc2ccccc2)NS(=O)(=O)[C@H]2C[C@@H]3C=C[C@]12O3)c1ccc([N+](=O)[O-])cc1
inactive
CC1CCN(c2ccc(C(=O)NCc3ccc4c(c3)OCO4)cc2[N+](=O)[O-])CC1
inactive
CN(C(=O)CSc1nnc(-c2ccc3c(c2)OCO3)o1)C1CCS(=O)(=O)C1 (configuration not stated)
inactive
O=C(Cc1ccc([N+](=O)[O-])cc1)NCCc1ccc2c(c1)OCO2
inactive
O=C(Nc1cccc(Cc2ccccc2)c1)Nc1ccc2nc([C@@H]3O[C@H](CO)[C@@H](O)[C@H](O)[C@H]3O)[nH]c2c1
inactive
O=C(Cn1cnc2ccccc21)Nc1ccccc1-c1ccccc1
inactive
COCCCn1c(SCC(=O)Nc2oc(C)c3c(C)n[nH]c(=O)c23)nc2sc3c(c2c1=O)CCC3
inactive
